Reported pEC50 values follow for various compounds
# TGT: Vasopressin V1b receptor (Homo sapiens)
# Sequence (P47901 whole entry): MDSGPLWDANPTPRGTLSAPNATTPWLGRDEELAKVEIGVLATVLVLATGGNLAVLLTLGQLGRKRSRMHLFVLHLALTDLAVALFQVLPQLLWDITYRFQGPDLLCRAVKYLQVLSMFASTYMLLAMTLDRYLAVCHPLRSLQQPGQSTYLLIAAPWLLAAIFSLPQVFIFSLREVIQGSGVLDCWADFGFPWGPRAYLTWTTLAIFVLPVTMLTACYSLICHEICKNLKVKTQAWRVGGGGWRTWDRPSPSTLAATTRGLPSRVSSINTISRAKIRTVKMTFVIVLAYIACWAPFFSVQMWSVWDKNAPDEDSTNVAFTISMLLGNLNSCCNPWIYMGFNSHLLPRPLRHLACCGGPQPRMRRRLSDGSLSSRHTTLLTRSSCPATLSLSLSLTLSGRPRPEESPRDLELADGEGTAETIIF
# ASSAY_METHOD_TEXT: Agonist activity at recombinant human vasopressin V1b receptor expressed in Flp-In-293 cells by luciferase reporter gene assay
# Type: functional, cell-based
# MEASUREMENT_SETUP: read-out: EC50
Numbered stars: 1 amine (or outer) side, 2 acyl side, 3 side chain; on linkers, the order of the positions; unused ones are H or OH. Bridge positions count the residues as written; N and C are the ends. Square brackets hold non-standard residues; d marks the D form. Peptide text beside a SMILES is read from it. * marks the point of attachment. Orn(Me) = CN(CCC[C@H](N[*:1])C(=O)[*:2])[*:3]; Orn = NCCC[C@H](N)C(=O)O; Dab = NCC[C@H](N)C(=O)O; X3 = OCCOCCN*
Answer as the number alone; pEC50 is minus log10 of concentration in mol/L.

// worked examples, pEC50 included
CC[C@H](C)[C@@H]1NC(=O)[C@H](Cc2ccccc2)NC(=O)[C@@H](N)CSSC[C@@H](C(=O)N2CCC[C@H]2C(=O)N[C@@H](CCCNC)C(=O)NCC(N)=O)NC(=O)[C@H](CC(N)=O)NC(=O)[C@H](CCC(N)=O)NC1=O (H-CFIQNCP[Orn(Me)]G-NH2; disulfide 1-6)    7.13
N=C(N)NCCC[C@H](NC(=O)[C@@H]1CCCN1C(=O)[C@@H]1CSSC[C@H](N)C(=O)N[C@@H](Cc2ccccc2)C(=O)N[C@@H](Cc2ccccc2)C(=O)N[C@@H](CCC(N)=O)C(=O)N[C@@H](CC(N)=O)C(=O)N1)C(=O)NCC(N)=O (H-CFFQNCPRG-NH2; disulfide 1-6)    7.80

input: Give pEC50 for the following compound: CC[C@H](C)[C@@H]1NC(=O)[C@H](Cc2ccccc2)NC(=O)[C@@H](N)CSSC[C@@H](C(=O)N2CCC[C@H]2C(=O)N[C@@H](CCCN)C(=O)NCC(N)=O)NC(=O)[C@H](CC(N)=O)NC(=O)[C@H](CC(=O)NCCOCCO)NC1=O (H-CFID(X3)NCP[Orn]G-NH2; disulfide 1-6)
output: 7.39

input: Give pEC50 for the following compound: CC[C@H](C)[C@@H]1NC(=O)[C@H](Cc2ccccc2)NC(=O)[C@@H](N)CSSC[C@@H](C(=O)N2CCC[C@H]2C(=O)N[C@@H](CCN)C(=O)NCC(N)=O)NC(=O)[C@H](CC(N)=O)NC(=O)[C@H](CCC(N)=O)NC1=O (H-CFIQNCP[Dab]G-NH2; disulfide 1-6)
output: 7.59

input: Give pEC50 for the following compound: CC[C@H](C)[C@@H]1NC(=O)[C@H](Cc2ccccc2)NC(=O)[C@@H](N)CSSC[C@@H](C(=O)N2CCC[C@H]2C(=O)N[C@@H](CCCN)C(=O)NCC(N)=O)NC(=O)[C@H](CC(N)=O)NC(=O)[C@H](CC(N)=O)NC1=O (H-CFINNCP[Orn]G-NH2; disulfide 1-6)
output: 7.54
